Data credit: patent US20150274777A1

Biological target: β5c (Homo sapiens, UniProt P20618+P28074)
Construct: protease activity associated with the proteasome complex in cultured cells; endogenous in cells
Assay: Cell-Based Proteasome Activity/Selectivity Assay (Ramos cells), substrate (WLA)2Rh110
Details: highest concentration tested 20 μM
Text: Cell-Based Proteasome Activity/Selectivity Assay The Cell-Based Proteasome subunit activity/selectivity assay was a panel of 5 fluorogenic assays that independently measured the activity of β5c or β5i (chymotrypsin-like activity), β2c/2i (trypsin-like), and β1c or β1i (caspase-like) protease activity associated with the proteasome complex in cultured cells. […]
endpoint.label: IC50 (nM)
Unit nM implied. Number only.

# lookup: CCCC[C@H](NC(=O)[C@H](Cc1c[nH]c2ccccc12)NC(=O)[C@H](C)NC(=O)C1=C(C)c2ccccc2C1)C(=O)C(=O)N[C@H](C)c1ccccc1 on β5c (Homo sapiens, UniProt P20618+P28074), IC50 = 771

# lookup: COc1ccc(C[C@H](NC(=O)[C@H](C)NC(=O)C2Cc3ccccc3C2)C(=O)N[C@@H](Cc2ccccc2)C(=O)C(=O)NCc2ccccc2)cc1 on β5c (Homo sapiens, UniProt P20618+P28074), IC50 = 55

# lookup: C[C@H](NC(=O)CN1CCOCC1)C(=O)N[C@@H](Cc1c[nH]c2ccccc12)C(=O)N[C@@H](Cc1ccccc1)C(=O)C(=O)NCc1ccccc1 on β5c (Homo sapiens, UniProt P20618+P28074), IC50 = 3300

# lookup: C[C@H](NC(=O)C1Cc2ccccc2C1)C(=O)N[C@@H](CCc1ccccc1)C(=O)N[C@@H](Cc1ccccc1)C(=O)C(=O)NCc1ccccc1 on β5c (Homo sapiens, UniProt P20618+P28074), IC50 = 14

# lookup: C[C@H](NC(=O)C1Cc2ccccc2C1)C(=O)N[C@@H](Cc1c[nH]c2ccccc12)C(=O)N[C@@H](Cc1ccccc1)C(=O)C(=O)NCc1ccccc1 on β5c (Homo sapiens, UniProt P20618+P28074), IC50 = 173

====

Molecular target: β5i (Homo sapiens, UniProt P20618+P28062)
Construct: protease activity associated with the proteasome complex in cultured cells; endogenous in cells
Assay: Cell-Based Proteasome Activity/Selectivity Assay (Ramos cells), substrate (ANW)2Rh110
Details: highest concentration tested 20 μM, read-out: Ic50 ramos:ac-(anw)2-r110
Documented IC50 across a set of compounds
Unit nM implied. Number only.

Here's what some known entries look like.
CCCC[C@H](NC(=O)[C@H](Cc1c[nH]c2ccccc12)NC(=O)[C@H](C)NC(=O)C1=C(C)c2ccccc2C1)C(=O)C(=O)N[C@@H](C)c1ccccc1 : 102
C[C@H](NC(=O)N1Cc2ccccc2C1)C(=O)N[C@@H](Cc1ccccc1)C(=O)N[C@@H](Cc1ccccc1)C(=O)C(=O)NCc1ccccc1 : 221

Now for a further compound.
The compound COc1ccc(C[C@H](NC(=O)[C@H](C)NC(=O)CN2CCOCC2)C(=O)N[C@@H](Cc2ccccc2)C(=O)C(=O)NCc2ccccc2)cc1 showed IC50 equal to 121

====

Test system: IP10 level in PBMCs stimulated with CpG Type A
Assay: PBMC IP-10 Assay
Type: cell-based
Details: CpG Type A 2.5 μM
endpoint.label: pEC50
Remember the convention: pEC50 equals -log10 of concentration in molar.

Here's what some known entries look like.
COc1ccc(C[C@H](NC(=O)[C@H](C)NC(=O)CN2CCOCC2)C(=O)N[C@@H](Cc2ccccc2)C(=O)C(=O)NCc2ccccc2)cc1 [Example 46] : 5.24
C[C@H](NC(=O)OCc1ccccc1)C(=O)N[C@@H](Cc1c[nH]c2ccccc12)C(=O)N[C@@H](Cc1ccccc1)C(=O)C(=O)NCc1ccccc1 [Example 16] : 5.88

# lookup: Cc1cc(C(=O)N[C@@H](C)C(=O)N[C@@H](Cc2c[nH]c3ccccc23)C(=O)N[C@@H](Cc2ccccc2)C(=O)C(=O)NCc2ccccc2)no1 [Example 47] on IP10 level in PBMCs stimulated with CpG Type A, pEC50 = 5.64

====

Target: β5i (Homo sapiens, UniProt P20618+P28062)
Construct: protease activity associated with the proteasome complex in cultured cells; endogenous in cells
Experiment: Cell-Based Proteasome Activity/Selectivity Assay (Ramos cells), substrate (ANW)2Rh110
Conditions: highest concentration tested 20 μM, read-out: Ic50 ramos:ac-(anw)2-r110
Documented pIC50 across a set of compounds
Remember the convention: pIC50 equals -log10 of concentration in molar.

COc1ccc(C[C@H](NC(=O)[C@H](C)NC(=O)C2Cc3ccccc3C2)C(=O)N[C@@H](Cc2ccccc2)C(=O)C(=O)NCc2ccccc2)cc1 : 8.52

The compound CCCC[C@H](NC(=O)[C@H](Cc1c[nH]c2ccccc12)NC(=O)[C@H](C)NC(=O)C1=C(C)c2ccccc2C1)C(=O)C(=O)NCc1ccccc1 showed pIC50 equal to 7.74

The compound CCCC[C@H](NC(=O)[C@H](Cc1c[nH]c2ccccc12)NC(=O)[C@H](C)NC(=O)C1=C(C)c2ccccc2C1)C(=O)C(=O)N[C@H](C)c1ccccc1 showed pIC50 equal to 7.48

====

Documented EC50 across a set of molecules
Test system: IP10 level in PBMCs stimulated with CpG Type A
Test: PBMC IP-10 Assay
Type: cell-based
Settings: CpG Type A 2.5 μM
Unit nM implied. Number only.

C[C@H](NC(=O)OCc1ccccc1)C(=O)N[C@@H](Cc1ccc(Cl)cc1)C(=O)N[C@@H](Cc1ccccc1)C(=O)C(=O)NCc1ccccc1 : 2590
CCCC[C@H](NC(=O)[C@H](Cc1ccc(OC)cc1)NC(=O)[C@H](C)NC(=O)CN1CCOCC1)C(=O)C(=O)NC : 5180
CCCC[C@H](NC(=O)[C@H](Cc1c[nH]c2ccccc12)NC(=O)[C@H](C)NC(=O)C1Cc2ccccc2C1)C(=O)C(=O)NCc1ccccc1 : 1220
C[C@H](NC(=O)C1Cc2ccccc2C1)C(=O)N[C@@H](Cc1ccccc1)C(=O)N[C@@H](Cc1ccccc1)C(=O)C(=O)NCc1ccccc1 : 784
C[C@H](NC(=O)c1cc2ccccc2n1C)C(=O)N[C@@H](Cc1ccccc1)C(=O)N[C@@H](Cc1ccccc1)C(=O)C(=O)NCc1ccccc1 : 596
C[C@H](NC(=O)OCc1ccccc1)C(=O)N[C@@H](Cc1c[nH]c2ccccc12)C(=O)N[C@@H](Cc1ccccc1)C(=O)C(=O)NCc1ccccn1 : 1160

The molecule COc1ccc(C[C@H](NC(=O)[C@H](C)NC(=O)c2cnccn2)C(=O)N[C@@H](Cc2ccccc2)C(=O)C(=O)NCc2ccccc2)cc1 showed EC50 equal to 4170

The molecule CCCC[C@H](NC(=O)[C@H](Cc1c[nH]c2ccccc12)NC(=O)[C@H](C)NC(=O)C1=C(C)c2ccccc2C1)C(=O)C(=O)NCc1ccccc1 showed EC50 equal to 1220

====

Documented IC50 across a set of molecules
Molecular target: β1i (Homo sapiens, UniProt P28065+P40306)
Construct: protease activity associated with the proteasome complex in cultured cells; endogenous in cells
Experiment: Cell-Based Proteasome Activity/Selectivity Assay (Ramos cells), substrate (PAL)2Rh110
Conditions: highest concentration tested 20 μM
Unit nM implied. Number only.

The molecule CCCC[C@H](NC(=O)[C@H](Cc1c[nH]c2ccccc12)NC(=O)[C@H](C)NC(=O)C1=C(C)c2ccccc2C1)C(=O)C(=O)N[C@@H](C)c1ccccc1 showed IC50 equal to 712

The molecule COc1ccc(C[C@H](NC(=O)[C@H](C)NC(=O)c2cc(C)on2)C(=O)N[C@@H](Cc2ccccc2)C(=O)C(=O)NCc2ccccc2)cc1 showed IC50 equal to 210

The molecule C[C@H](NC(=O)OCc1ccccc1)C(=O)N[C@@H](Cc1ccc(Cl)cc1)C(=O)N[C@@H](Cc1ccccc1)C(=O)C(=O)NCc1ccccc1 showed IC50 equal to 9840

The molecule CC1=C(C(=O)N[C@@H](C)C(=O)N[C@@H](CCS(C)(=O)=O)C(=O)N[C@@H](Cc2ccccc2)C(=O)C(=O)NCc2ccccc2)Cc2ccccc21 showed IC50 equal to 738

The molecule C[C@H](NC(=O)OCc1ccccc1)C(=O)N[C@@H](Cc1ccncc1)C(=O)N[C@@H](Cc1ccccc1)C(=O)C(=O)NCc1ccccc1 showed IC50 equal to 478

The molecule COc1ccc(C[C@H](NC(=O)[C@H](C)NC(=O)CN2CCOCC2)C(=O)N[C@@H](Cc2ccccc2)C(=O)C(=O)NCc2ccccc2)cc1 showed IC50 equal to 2170

The molecule CCCCC(NC(=O)[C@H](COC)NC(=O)[C@H](C)NC(=O)c1cc(C)on1)C(=O)C(=O)NCc1ccccc1 (mixture of isomers) showed IC50 equal to 949

====

Test system: IP10 level in PBMCs stimulated with CpG Type A
Assay: PBMC IP-10 Assay
Assay type: cell-based
Details: CpG Type A 2.5 μM
pEC50: −log10 of the molar value.
We use 6 as the dividing line for pEC50: on or above the line is 1, below is -1.

Here are 2 molecules together with their reported answers.
CC1=C(C(=O)N[C@@H](C)C(=O)N[C@@H](CCS(C)(=O)=O)C(=O)N[C@@H](Cc2ccccc2)C(=O)C(=O)NCc2ccccc2)Cc2ccccc21 [Example 20] : -1
C[C@H](NC(=O)OCc1ccccc1)C(=O)N[C@@H](Cc1ccccn1)C(=O)N[C@@H](Cc1ccccc1)C(=O)C(=O)NCc1ccccc1 [Example 50] : -1

# bool: pEC50 of CCCC[C@H](NC(=O)[C@H](Cc1c[nH]c2ccccc12)NC(=O)[C@H](C)NC(=O)OCc1ccccc1)C(=O)C(=O)NCc1ccccc1 [Example 9] >= 6
-1

# bool: pEC50 of COc1ccc(C[C@H](NC(=O)[C@H](C)NC(=O)c2cn3ccccc3n2)C(=O)N[C@@H](Cc2ccccc2)C(=O)C(=O)NCc2ccccc2)cc1 [Example 49] >= 6
-1
